Data provenance is ChEMBL document CHEMBL3580593.

- assay text: Ratio of drug level in brain to plasma in CD1 mouse at 100 mg/kg, po after 1 hr by LC-MS/MS analysis
- Type: ADME, organism-based
- assay setup: read-out: BPR
quantity kind: Kp at 1 h
Give the value as a plain number.

Task item: Query (compound): `C/C1=C\CC[C@@]2(C)O[C@H]2[C@H]2OC(=O)[C@@H](CN(C)C)[C@@H]2CC1` ; field requested: Kp at 1 h
Reply: 2.1

----------
- assay text: Drug uptake in CD1 mouse perfused brain at 100 mg/kg, po after 4 hrs by LC-MS/MS analysis
- Assay type: ADME, organism-based
- assay setup: read-out: Drug uptake
quantity kind: concentration at 4 h (ng/g)
Your answer should be a plain number; it is taken to be in ng/g.

Task item: Query (compound): `C/C1=C\CC[C@@]2(C)O[C@H]2[C@H]2OC(=O)[C@@H](CN(C)C)[C@@H]2CC1` ; field requested: concentration at 4 h
Reply: 342
